Tested on: Botrytis cinerea
Assay summary: Antifungal activity against Botryotinia fuckeliana ITEM-966 after 48 hr by broth dilution method
Format: functional
Condition info: ITEM-966, 48 h
Readout type: MIC
Mention the unit after the number when you answer.

Consider the reported MIC for these compounds:
{"Compound": "CCCCCCC(C)C/C(C)=C\\C(C)/C=C(C)/C=C/C(O)C(C)(C)c1cc(O)c([C@@H]2O[C@H](CO)C[C@H](O)[C@H]2O)c(=O)o1 (some centres not stated)", "Readout type": "MIC", "Recorded value": "1.56 µg/mL"}
{"Compound": "CCCCNC(=O)n1c(NC(=O)OC)nc2ccccc21", "Readout type": "MIC", "Recorded value": "0.19 µg/mL"}
{"Compound": "CCCCCCC(C)CC(C)CC(CO)CC(C)CCC(O)C(C)(C)c1cc(O)c([C@@H]2O[C@H](CO)C[C@H](O)[C@H]2O)c(=O)o1 (some centres not stated)", "Readout type": "MIC", "Recorded value": "50 µg/mL"}
{"Compound": "CCCCCCC(C)C/C(C)=C\\C(CO)CC(C)CCC(O)C(C)(C)c1cc(O)c([C@@H]2O[C@H](CO)C[C@H](O)[C@H]2O)c(=O)o1 (some centres not stated)", "Readout type": "MIC", "Recorded value": "50 µg/mL"}
{"Compound": "CCCCCCC(C)C/C(C)=C\\C(/C=C(C)/C=C/C(O)C(C)(C)c1cc(O)c([C@@H]2O[C@H](CO)C[C@H](O)[C@H]2O)c(=O)o1)CO (some centres not stated)", "Readout type": "MIC", "Recorded value": "3.12 µg/mL"}

Q: Please give the measured MIC for this compound: `Nc1c(Cl)cc([N+](=O)[O-])cc1Cl`
A: 6.25 µg/mL

Q: # query: MIC of entry CCCCCCC(C)C/C(C)=C\C(/C=C(C)/C=C/C(O)C(C)(C)c1cc(OC)c([C@@H]2O[C@H](CO)C[C@H](O)[C@H]2O)c(=O)o1)CO (some centres not stated)
A: 50 µg/mL

* * *

Entries and their MIC
System: Botrytis cinerea
Assay summary: Antifungal activity against Botryotinia fuckeliana ITEM-966 after 24 hr by broth dilution method
Format: functional
Condition info: ITEM-966, 24 h
The reply should be a number in µg/mL, with the unit left off.

Examples from the recorded data:
{"Compound": "CCCCCCC(C)C/C(C)=C\\C(/C=C(C)/C=C/C(O)C(C)(C)c1cc(OC)c([C@@H]2O[C@H](CO)C[C@H](O)[C@H]2O)c(=O)o1)CO (stereo partly drawn)", "MIC (µg/mL)": 25}
{"Compound": "CCCCNC(=O)n1c(NC(=O)OC)nc2ccccc21 [BENOMYL]", "MIC (µg/mL)": 0.19}

Q: Please look up its MIC: CCCCCCC(C)C/C(C)=C\C(/C=C(C)/C=C/C(O)C(C)(C)c1cc(O)c([C@@H]2O[C@H](CO)C[C@H](O)[C@H]2O)c(=O)o1)CO (stereo partly drawn) [Fusapyrone]
A: 1.56

* * *

Test system: Aspergillus parasiticus
Assay summary: Antifungal activity against Aspergillus parasiticus Speare ITEM-11 after 24 hr by broth dilution method
Format: functional
Condition info: Speare ITEM-11, 24 h
Readout type: MIC (µg/mL)
All answers are understood in µg/mL, so give the number only.

Q: Name the reported MIC value associated with the compound CCCCCCC(C)C/C(C)=C\C(C)/C=C(C)/C=C/C(O)C(C)(C)c1cc(O)c([C@@H]2O[C@H](CO)C[C@H](O)[C@H]2O)c(=O)o1 (some centres undefined)
A: 0.78

Q: Fill in: MIC of CCCCCCC(C)C/C(C)=C\C(/C=C(C)/C=C/C(O)C(C)(C)c1cc(O)c([C@@H]2O[C@H](CO)C[C@H](O)[C@H]2O)c(=O)o1)CO (some centres undefined) is ___
A: 6.25

* * *

The following compounds are listed with their measured MIC values.
Test system: Botrytis cinerea
Assay summary: Antifungal activity against Botryotinia fuckeliana ITEM-966 after 24 hr by broth dilution method
Format: functional
Condition info: ITEM-966, 24 h
State the result as a value with its unit after it.

{"Compound": "Nc1c(Cl)cc([N+](=O)[O-])cc1Cl", "MIC": "3.12 µg/mL"}
{"Compound": "CCCCCCC(C)C/C(C)=C\\C(CO)CC(C)CCC(O)C(C)(C)c1cc(O)c([C@@H]2O[C@H](CO)C[C@H](O)[C@H]2O)c(=O)o1 (some centres undefined)", "MIC": "50 µg/mL"}
{"Compound": "CCCCCCC(C)CC(C)CC(CO)CC(C)CCC(O)C(C)(C)c1cc(O)c([C@@H]2O[C@H](CO)C[C@H](O)[C@H]2O)c(=O)o1 (some centres undefined)", "MIC": "50 µg/mL"}

Q: Which measured MIC value corresponds to CCCCCCC(C)C/C(C)=C\C(C)/C=C(C)/C=C/C(O)C(C)(C)c1cc(O)c([C@@H]2O[C@H](CO)C[C@H](O)[C@H]2O)c(=O)o1 (some centres undefined) ?
A: 0.78 µg/mL

* * *

Measured MIC accompanies every entry in the list below.
Test system: Botrytis cinerea
Assay summary: Antifungal activity against Botryotinia fuckeliana ITEM-966 after 72 hr by broth dilution method
Assay type: functional
Condition info: ITEM-966, 72 h
The reply should contain only the number, in µg/mL.

Q: API: value(readout=MIC, system=Botrytis cinerea) for record CCCCNC(=O)n1c(NC(=O)OC)nc2ccccc21 [BENOMYL]
A: 0.19

Q: Param readout = MIC; param system = Botrytis cinerea; param query = Nc1c(Cl)cc([N+](=O)[O-])cc1Cl [ALLISAN] ; response: value
A: 6.25

Q: // map CCCCCCC(C)C/C(C)=C\C(CO)CC(C)CCC(O)C(C)(C)c1cc(O)c([C@@H]2O[C@H](CO)C[C@H](O)[C@H]2O)c(=O)o1 (some centres not stated) to recorded MIC (system: Botrytis cinerea)
A: 50

* * *

Tested on: Rhodotorula glutinis
Assay summary: Antifungal activity against Rhodotorula glutinis assessed as growth inhibition at 50 ug/ml after 24 to 72 hr by broth dilution method
Type: functional, organism-based
Calls of active or inactive are those of the source. The calls are words filed in the database; no cut-off is given here.
Readout type: growth inhibition (GI)

Use the examples below as a reference point.
{"Compound": "CCCCCCC(C)C/C(C)=C\\C(C)/C=C(C)/C=C/C(OC(C)=O)C(C)(C)c1cc(OC(C)=O)c([C@@H]2O[C@H](COC(C)=O)C[C@H](OC(C)=O)[C@H]2OC(C)=O)c(=O)o1 (stereo not given in full)", "Recorded value": "inactive"}
{"Compound": "CCCCCCC(C)C/C(C)=C\\C(/C=C(C)/C=C/C(O)C(C)(C)c1cc(OC)c([C@@H]2O[C@H](CO)C[C@H](O)[C@H]2O)c(=O)o1)CO (stereo not given in full)", "Recorded value": "inactive"}
{"Compound": "CCCCCCC(C)C/C(C)=C\\C(/C=C(C)/C=C/C(OC(C)=O)C(C)(C)c1cc(=O)c([C@@H]2O[C@H](COC(C)=O)C[C@H](OC(C)=O)[C@H]2OC(C)=O)c(OC)o1)COC(C)=O (stereo not given in full)", "Recorded value": "inactive"}
{"Compound": "CCCCCCC(C)C/C(C)=C\\C(/C=C(C)/C=C/C(O)C(C)(C)c1cc(O)c(CCO)c(=O)o1)CO (stereo not given)", "Recorded value": "inactive"}

Now let's try a different one.
Q: growth inhibition (GI) of CCCCCCC(C)CC(C)CC(CO)CC(C)CCC(O)C(C)(C)c1cc(O)c([C@@H]2O[C@H](CO)C[C@H](O)[C@H]2O)c(=O)o1 (stereo not given in full) on Rhodotorula glutinis?
A: inactive

* * *

Form field: LC50 at 24 h (one value per entry).
Assay summary: Toxicity against Artemia salina (brine shrimp) larvae after 24 hr
Type: organism-based
Condition info: in vivo
Give the number; µM is assumed, so skip it.

Q: Param item = CCCCCCC(C)C/C(C)=C\C(C)/C=C(C)/C=C/C(O)C(C)(C)c1cc(O)c([C@@H]2O[C@H](CO)C[C@H](O)[C@H]2O)c(=O)o1 (stereo partly specified) [DEOXYNEOFUSAPYRONE] ; retrieve measured LC50 at 24 h.
A: 37.1

Q: Can you share its LC50 at 24 h? I mean this compound: CCCCCCC(C)C/C(C)=C\C(C)/C=C(C)/C=C/C(OC(C)=O)C(C)(C)c1cc(OC(C)=O)c([C@@H]2O[C@H](COC(C)=O)C[C@H](OC(C)=O)[C@H]2OC(C)=O)c(=O)o1 (stereo partly specified)
A: 39.7

Q: Form field: reported LC50 at 24 h of CCCCCCC(C)C/C(C)=C\C(/C=C(C)/C=C/C(OC(C)=O)C(C)(C)c1cc(OC(C)=O)c([C@@H]2O[C@H](COC(C)=O)C[C@H](OC(C)=O)[C@H]2OC(C)=O)c(=O)o1)COC(C)=O (stereo partly specified)
A: 85.6

Q: # LC50 at 24 h lookup, item CCCCCCC(C)C/C(C)=C\C(/C=C(C)/C=C/C(OC(C)=O)C(C)(C)c1cc(=O)c([C@@H]2O[C@H](COC(C)=O)C[C@H](OC(C)=O)[C@H]2OC(C)=O)c(OC)o1)COC(C)=O (stereo partly specified)
A: 51.9

Q: Look up LC50 at 24 h for this compound: CCCCCCC(C)C/C(C)=C\C(/C=C(C)/C=C/C(OC(C)=O)C(C)(C)c1cc(OC)c([C@@H]2O[C@H](COC(C)=O)C[C@H](OC(C)=O)[C@H]2OC(C)=O)c(=O)o1)COC(C)=O (stereo partly specified)
A: 46.1
